tested on: T-47D breast; test: NCI tumour cell line growth inhibition, 48 h
Give measured GI50 for each item. Keep answers brief.

Exercise: What GI50 value was documented for this molecule, CC(=O)ON=C1C=CC(=C(C#N)c2ccccc2)C=C1 ?
Key: 1050 nM

Exercise: Next: COc1cc(C(=O)NN=C2c3ccccc3-c3ccccc32)cc(OC)c1OC
Key: 3900 nM

Exercise: What do we get for CC[C@@]1(O)C(=O)OCc2c1cc1n(c2=O)Cc2c-1nc1cc(F)c(C)c3c1c2[C@@H](NC(=O)CO)CC3 ?
Key: < 10 nM

Exercise: Another: COc1cc(C2CC(c3cccc(Nc4ccnc5cc(Cl)ccc45)c3)=NN2c2ccccc2)cc(OC)c1OC (stereo not given)
Key: 1440 nM

Exercise: Input CN(C)C1CN(C(=O)c2cc(-c3ccc4ncnc(N5CCc6cc(F)c(Cl)cc65)c4c3)cnc2N)C1
Key: 299 nM

Exercise: Try this molecule next: O=C1OCC2=C1C(c1cccc(Cl)c1)c1cc3c(cc1N2CCO)CCC3 (stereo not given)
Key: 41.4 nM

Exercise: What do we get for COc1cc(C)[nH]c(=O)c1CNC(=O)c1c(C)n([C@H](C)C2CCN(CC(F)(F)F)CC2)c2ccccc12 ?
Key: 25900 nM

Exercise: Same read-out for Cc1cc(C)c2c(c1)N(C)c1ncnc(-n3cnc4cc(C)ccc43)c1CC2C (stereo not given) ?
Key: 4170 nM

Exercise: Now consider O=C(NN1C(=O)CSC1c1c(Cl)cccc1Cl)C(O)c1ccccc1 (stereo not given) and answer again.
Key: 40400 nM

Exercise: Next molecule up: CO/C(=C1/NC(=O)C(Cc2ccc(O)c(Br)c2)N(C)C(=O)C(C)NC(=O)CCC/C=C(\C)CCC(C)OC1=O)c1ccccc1 (stereo not given)
Key: 35.4 nM

====

tested on: SR leukemia; assay: NCI tumour cell line growth inhibition, 48 h
REPORTED METRIC: TGI

Exercise: Requested read-out: TGI. Entry: Nc1ncnc2c1ccn2-c1cccc(NC(=O)c2ccc(N3CCOCC3)c(C(F)(F)F)c2)c1
Key: 20.7 µM

Exercise: What do you get for C=CCOCn1cnc2c(=O)[nH]c(N)nc21 ?
Key: > 100 µM

Exercise: Try the compound Cc1cc(N=Cc2c(CO)cnc(C)c2O)c(N=Cc2c(CO)cnc(C)c2O)cc1C
Key: > 100 µM

Exercise: Further, for N#CCCN(c1ccc(C=O)cc1)S(=O)(=O)c1ccccc1 ?
Key: > 100 µM

Exercise: Also CCOC(=O)CC1Nc2ccccc2C12CCc1c([nH]c3ccccc13)C2C(=O)OCC (stereo not given) , if possible.
Key: > 100 µM

Exercise: What do you have for Cc1ccc(-c2cc(=O)c(=O)[nH][nH]2)cc1 ?
Key: > 100 µM

Exercise: Now the same for COC(=O)Cc1c(C2C(CC(=O)OC)c3ccccc3N2C2OC(CO)C(O)C(O)C2O)[nH]c2ccccc12 (stereo not given)
Key: > 100 µM

Exercise: Proceed to O=C(/C=C/C=C/c1ccc2c(c1)OCO2)N/N=C\c1ccc(O)cc1O
Key: > 100 µM

Exercise: What would you report for O=C(O)c1ccc(Nc2cnc3cc(C(F)(F)F)ccc3n2)cc1 ?
Key: > 100 µM

Exercise: Note, next up: COc1cc(C(=O)NN=C2c3ccccc3-c3ccccc32)cc(OC)c1OC
Key: 10.6 µM

Exercise: Repeat with COc1ccc2nc3cc(Cl)ccc3c(NCCCCCC(=O)NC(COc3ccc4ccc5cccnc5c4n3)COc3ccc4ccc5cccnc5c4n3)c2c1
Key: 12.3 µM

Exercise: Would you mind doing O=C(Nc1cccc(-n2cc(-c3ccncc3)c(-c3ccc(Cl)c(O)c3)n2)c1)Nc1ccc(Cl)c(Cl)c1 as well?
Key: 15 µM

Exercise: Next record, please: CCOc1ccc2c(c1)C(=O)c1c-2n(CCCN=[N+]=[N-])c(=O)c2cc([N+](=O)[O-])ccc12
Key: 11.9 µM

Exercise: Another compound to look at: O=C(CC(=O)N1N=C(N(c2ccccc2)c2ccccc2)CC1c1ccccc1)Nc1cccc(Cl)c1 (stereo not given)
Key: > 100 µM

Exercise: Let us now turn to COc1ccc(-c2cc(=O)c3cc(O)ccc3o2)c(OC)c1OC
Key: 77.6 µM

Exercise: Can you handle Cc1c(C(=O)c2ccccc2)[n+](=O)c2cc(F)c(F)cc2n1[O-] next?
Key: 5.24 µM

Exercise: Then this compound: CC(=O)Nc1cc2c3c(cccc3c1)-c1ccccc1-2
Key: > 100 µM

Exercise: // next record COc1cc(N(CCCl)CCCl)ccc1/C=N\NC(=O)c1cccnc1
Key: > 100 µM

Exercise: Field entry: COc1ccc(C=O)cc1OS(=O)(=O)C(F)(F)C(F)(F)C(F)(F)C(F)(F)F
Key: > 24.4 µM

Exercise: And what about the compound COC(=O)C1Cc2cc3c(cc2C1)CCC3 ?
Key: > 100 µM

Exercise: Now the compound COc1c(B(O)O)cccc1-c1nc2c(F)cc3n[nH]c(C)c3c2c2c1CCCC2
Key: > 24.3 µM

Exercise: Continue with COc1cc(C2CC(c3cccc(Nc4ccnc5cc(Cl)ccc45)c3)=NN2c2ccccc2)cc(OC)c1OC (stereo not given)
Key: > 100 µM

Exercise: Next entry: COC(=O)C1=CC(=O)[C@@H]2CCCC[C@H]12
Key: > 100 µM

Exercise: Now try C=C1CN2CCc3c([nH]c4ccccc34)C2CC1CC(=O)N(C)C (stereo not given) .
Key: > 309 µM

Exercise: What do you have for NC(=O)c1csc(-c2ccc(CO)o2)n1 ?
Key: > 100 µM

Exercise: Now the compound [O-][N+]1=C2CCC/C(=N/O)C2(O)C2CCCCC21N1CCOCC1 (stereo not given)
Key: > 100 µM

Exercise: Note, next up: CC(C)(C)CI
Key: 76.7 µM

Exercise: Moving on to CN(C)C1CN(C(=O)c2cc(-c3ccc4ncnc(N5CCc6cc(F)c(Cl)cc65)c4c3)cnc2N)C1
Key: > 100 µM

Exercise: Next up: CC(C)C(=O)/C=C/c1c(Cl)cccc1Cl
Key: > 100 µM

Exercise: Can you check N#C/C(=C\c1ccc[nH]1)C(=O)c1ccccc1 next?
Key: > 100 µM

Exercise: Now the same for CCCCCCCCCCCCc1ccsc1-c1ccc(-c2ccc(-c3sccc3CCCCCCCCCCCC)s2)s1
Key: > 100 µM

Exercise: Same question for CC1[C@@H]2CC=C3[C@H]4CCC5Cc6nc7c(nc6C[C@@]5(C)C4CC(=O)[C@]32CO[C@]12OC(C)(C)CC2O)CC1CC[C@@H]2C3=C[C@H]4O[C@@]5(O[C@@](C)(CO)C[C@@H]5O)C(C)[C@@]4(O)[C@]3(C)[C@@H](O)CC2[C@]1(C)C7 (stereo not given in full) please.
Key: 0.00856 µM

Exercise: Try the compound COc1cc2c(cc1[N+](=O)[O-])C(=O)C(Br)(Br)CCC2
Key: 4.96 µM

Exercise: Then this compound: CC(C)=CCc1cc(/C=C/C(=O)O)cc(CC=C(C)C)c1O
Key: > 100 µM

Exercise: Okay, and COc1ccc2nc3ccccc3c(NCCN(CCCl)CCCl)c2c1 ?
Key: 0.379 µM

Exercise: Try this compound next: CN(C)CCCCNc1ccc(NCCCCN(C)C)c2c1C(=O)c1c(O)ccc(O)c1C2=O
Key: 5.01 µM

Exercise: Please answer likewise for Cc1c(C#N)c2nc3ccccc3n2c(=O)/c1=C/Nc1ccc(Cl)cc1
Key: > 100 µM

Exercise: Do the same for CC[C@@]1(O)C(=O)OCc2c1cc1n(c2=O)Cc2c-1nc1cc(F)c(C)c3c1c2[C@@H](NC(=O)CO)CC3 please
Key: > 100 µM

Exercise: And the next one, Cc1cccc(N=N/C(=N\NC(=O)c2cc(Cl)ccc2O)c2ccc(N(CCC#N)CCC#N)cc2C)c1 ?
Key: 52.4 µM

Exercise: Entry CON[N+]([O-])=NC(C)C please
Key: > 100 µM
